Cited source for all entries: patent US12077503B2

system: barnyardgrass (Echinochloa crus-galli); experiment: Test A preemergence; assay type: in vivo; settings: Echinochloa crus-galli, pre-emergence, 240 h, 500 g ai/ha, preemergence; 0 to 100 scale, 0 = no effect, 100 = complete control; read-out: Plant response rating, Barnyardgrass
PARAMETER: pest or weed control at 500 g/ha (%)
Number in %, nothing else.

Sample answers from the record:
COMPOUND	TARGET DESC	pest or weed control at 500 g/ha [%]
O=C1NC[C@H](c2ccc(C3CC3)cc2)[C@H]1C(=O)Nc1ccccc1F [Compound 727]	barnyardgrass (Echinochloa crus-galli)	90
CCc1cc(CC)cc([C@H]2CN(C)C(=O)[C@@H]2C(=O)Nc2cccc(F)c2F)c1 [Compound 736]	barnyardgrass (Echinochloa crus-galli)	90
Cc1ccc([C@H]2CN(C)C(=O)[C@@H]2C(=O)Nc2cccc(F)c2F)c(F)c1 [Compound 730]	barnyardgrass (Echinochloa crus-galli)	100

Tested on barnyardgrass (Echinochloa crus-galli): CN1C[C@H](c2nccs2)[C@@H](C(=O)Nc2ccccc2F)C1=O [Compound 773] . Observed pest or weed control at 500 g/ha: 0

###

Form field: pest or weed control at 500 g/ha (one value per entry).
tested on: ryegrass, Italian (Italian ryegrass, Lolium multiflorum); assay: Test A postemergence; format: in vivo; conditions: Lolium multiflorum, post-emergence, 240 h, 500 g ai/ha, postemergence; 0 to 100 scale, 0 is no effect, 100 is complete control; read-out: Ryegrass, Italian plant response rating
Number in %, nothing else.

Sample answers from the record:
MOLECULE	RESULT UNIT	pest or weed control at 500 g/ha
CSc1ccccc1NC(=O)C1C(=O)NCC1C=C(C)C (stereo not shown) [Compound 1055]	%	0
CCc1cc(CC)cc([C@H]2CNC(=O)[C@@H]2C(=O)Nc2cccc(F)c2F)c1 [Compound 1139]	%	50
CSc1ccccc1NC(=O)[C@H]1C(=O)N(C)CC[C@@H]1c1ccc(C(F)(F)F)cc1 [Compound 1227]	%	0

Okay, now this molecule:
Recorded result, C/C=C/N1C[C@@H](c2cccc(C(F)(F)F)c2)[C@H](C(=O)Nc2ccccc2F)C1=O (racemic) [Compound 1094] , pest or weed control at 500 g/ha: 20

###

system: lambsquarters (Chenopodium album); test: Test C preemergence; format: in vivo; conditions: 125 g ai/ha, scale 0 to 100, 0 no effect, 100 complete control
Text: […]
Form field: Plant response rating, Lambsquarters (one value per entry).
Returns: the value as a bare number; no unit string appended.

Sample answers from the record:
COMPOUND	Plant response rating, Lambsquarters
O=C1NCC(c2cccc(OC(F)(F)C(F)F)c2)C1C(=O)Nc1ccc(F)c(F)c1F (racemic)	70
O=C1NCC(c2ccc(I)cc2)C1C(=O)Nc1cccc(F)c1F (racemic)	80

Tested on lambsquarters (Chenopodium album): O=C1NCC(c2cccc(OC(F)F)c2)C1C(=O)Nc1ccc(F)cc1F (stereo not shown) . Observed Plant response rating, Lambsquarters: 60

Tested on lambsquarters (Chenopodium album): "CN1C[C@H](c2ccc(F)c(F)c2)[C@@H](C(=O)Nc2ccccc2F)C1=O" . Observed Plant response rating, Lambsquarters: 70

###

Form field: pest or weed control at 250 g/ha (one value per entry).
test system: velvetleaf (Abutilon theophrasti); test: Test G Pre-Emergence Protocol; assay type: in vivo; conditions: Abutilon theophrasti, pre-emergence, 312 h, 250 g ai/ha, evaluated after 13 days, read-out: Velvetleaf damage rating (100=total damage to plant; 0=no damage to plant)
Please answer in the form of a number followed by its unit of measurement.

COMPOUND	TARGET DESC	pest or weed control at 250 g/ha
C=Cc1cccc([C@@H]2CN(C)C(=O)[C@H]2C(=O)Nc2cccc(F)c2F)c1 (racemic)	velvetleaf (Abutilon theophrasti)	10%

Recorded result, CC(C)OC(=O)c1cc([C@H]2CN(C)C(=O)[C@@H]2C(=O)Nc2ccccc2F)ccc1F (racemic) , pest or weed control at 250 g/ha: 0%

Recorded result, CSc1nc(N)cc(NC(=O)[C@@H]2C(=O)N(C)C[C@H]2c2ccc(C(F)(F)F)cc2)n1 (racemic) , pest or weed control at 250 g/ha: 0%

Recorded result, COc1cc(NC(=O)[C@@H]2C(=O)N(C)C[C@H]2c2ccc(C(F)(F)F)cc2)ccn1 (racemic) , pest or weed control at 250 g/ha: 0%

###

Form field: Plant response rating, Johnsongrass (one value per entry).
test system: johnsongrass (Sorghum halepense); assay: Test C preemergence; assay type: in vivo; conditions: 125 g ai/ha, scale 0 to 100, 0 no effect, 100 complete control
Returns: the value as a bare number; no unit string appended.

Sample answers from the record:
COMPOUND	Plant response rating, Johnsongrass
CN1C[C@H](c2ccc(F)c(F)c2)[C@@H](C(=O)Nc2ccccc2F)C1=O [Compound 596]	70
O=C1NCC(c2cccc(OC(F)(F)C(F)F)c2)C1C(=O)Nc1cccc(F)c1F (racemic) [Compound 697]	85
O=C1NCC(c2cccc(OC(F)(F)C(F)F)c2)C1C(=O)Nc1ccc(F)c(F)c1F (racemic) [Compound 698]	80

Recorded result, CN1CC(c2cc(F)cc(F)c2)C(C(=O)Nc2ccc(F)c(F)c2F)C1=O (stereo not shown) [Compound 646] , Plant response rating, Johnsongrass: 85

###

tested on: barnyardgrass (Echinochloa crus-galli); experiment: Test B flooded paddy test; assay type: in vivo; conditions: Flood, 500 g ai/ha; 0 to 100 scale where 0 is no effect and 100 is complete control; 13 to 15 d
PARAMETER: Plant response rating, Barnyardgrass

Sample answers from the record:
COMPOUND	Plant response rating, Barnyardgrass
COc1cccc(NC(=O)C2C(=O)NCC2c2ccc(F)c(F)c2)c1F (centres unmarked)	0
O=C1NCC(c2cccc(C(F)(F)F)c2)C1C(=O)Nc1ccc(F)cc1Cl (racemic)	80
O=C1NCC(c2ccc(I)cc2)C1C(=O)Nc1cccc(F)c1F (racemic)	85
COc1cccc(NC(=O)C2C(=O)NCC2c2cccc(OC(F)F)c2)c1F (centres unmarked)	0

Okay, now this compound:
Recorded result, O=C1NCC(c2cccc(OC(F)F)c2)C1C(=O)Nc1cccc(OC(F)F)c1 (centres unmarked) , Plant response rating, Barnyardgrass: 0

###

Form field: pest or weed control at 250 g/ha (one value per entry).
system: giant foxtail (Setaria faberi); assay: Test G Post-Emergence Protocol; assay type: in vivo; conditions: Setaria faberi, post-emergence, 312 h, 250 g ai/ha, evaluated after 13 days, read-out: damage to plant, Foxtail, Giant (100=total damage to plant; 0=no damage to plant)
Number in %, nothing else.

Sample answers from the record:
COMPOUND	pest or weed control at 250 g/ha / %
CN1C[C@@H](c2cnc(Cl)c(Cl)c2)[C@H](C(=O)Nc2cccc(F)c2F)C1=O (racemic)	70
CN1C[C@@H](c2ccc(C(F)(F)F)cc2)[C@H](C(=O)Nc2ccc(C(F)(F)F)nc2Cl)C1=O (racemic)	0

Recorded result, Cc1c(NC(=O)[C@@H]2C(=O)N(C)C[C@H]2c2ccc(C(F)(F)F)cc2)ccc(F)c1F (racemic) , pest or weed control at 250 g/ha: 80

Recorded result, CN1C[C@H](c2ccc(C(F)(F)F)cc2)[C@@H](C(=O)Nc2ccc(F)c(C(F)(F)F)c2)C1=O (racemic) , pest or weed control at 250 g/ha: 0

Recorded result, CN1C[C@H](c2cccc(C(C)(C)C#N)c2)[C@@H](C(=O)Nc2ccccc2F)C1=O (racemic) , pest or weed control at 250 g/ha: 70

###

tested on: barnyardgrass (Echinochloa crus-galli); assay: Test G Pre-Emergence Protocol; assay type: in vivo; conditions: Echinochloa crus-galli, pre-emergence, 312 h, 250 g ai/ha, evaluated after 13 days, read-out: Barnyardgrass damage rating (100=total damage to plant; 0=no damage to plant)
PARAMETER: pest or weed control at 250 g/ha (%)
Number in %, nothing else.

Sample answers from the record:
MOLECULE	PARAMETER	OBSERVED RESULT
CN1C[C@@H](c2ccc(C(F)(F)F)cc2)[C@H](C(=O)Nc2nnc(C(F)(F)F)s2)C1=O (racemic) [Compound 1548]	pest or weed control at 250 g/ha	0
CN1C[C@H](c2ccc(Cl)cc2)[C@@H](C(=O)Nc2cnccc2C(F)(F)F)C1=O [Compound 1812]	pest or weed control at 250 g/ha	70

Okay, now this molecule:
Tested on barnyardgrass (Echinochloa crus-galli): CN1C[C@@H](c2ccc(C(F)(F)F)cc2)[C@H](C(=O)Nc2ncc(C#N)s2)C1=O (racemic) [Compound 1528] . Observed pest or weed control at 250 g/ha: 0

###

Form field: pest or weed control at 250 g/ha (one value per entry).
System: giant foxtail (Setaria faberi)
Experiment: Test G Post-Emergence Protocol
Format: in vivo
Conditions: Setaria faberi, post-emergence, 312 h, 250 g ai/ha, evaluated after 13 days, read-out: damage to plant, Foxtail, Giant (100=total damage to plant; 0=no damage to plant)
From the text: Seeds of corn (Zea mays), giant foxtail (Setaria faberi), barnyardgrass (Echinochloa crus-galli), ivy-leaved morning glory (Ipomoea hederacea), redroot pigweed (Amaranthus retroflexus) and velvetleaf (Abutilon theophrasti) were sown in standard soil in pots. […]
Number in %, nothing else.

Sample answers from the record:
COMPOUND	pest or weed control at 250 g/ha / %
C=CCc1c(Cl)cccc1NC(=O)[C@H]1C(=O)N(C)C[C@H]1c1ccc(C(F)(F)F)cc1 (racemic)	60
CN1C[C@@H](c2ccc(C(F)(F)F)cc2)[C@H](C(=O)Nc2nn[nH]n2)C1=O (racemic)	0
CN1C[C@H](c2cccc(C(F)F)c2)[C@@H](C(=O)Nc2ccccc2F)C1=O (racemic)	70
Cc1cncc(NC(=O)[C@@H]2C(=O)N(C)C[C@H]2c2ccc(C(F)(F)F)cc2)n1 (racemic)	70
Cc1cnc(NC(=O)[C@@H]2C(=O)N(C)C[C@H]2c2ccc(C(F)(F)F)cc2)s1 (racemic)	20
CC(C)c1cc([C@H]2CN(C)C(=O)[C@@H]2C(=O)Nc2cccc(F)c2F)cnn1 (racemic)	30

Okay, now this compound:
Tested on giant foxtail (Setaria faberi): COc1c(Cl)ccc([C@H]2CN(C)C(=O)[C@@H]2C(=O)Nc2cccc(F)c2F)c1F (racemic) . Observed pest or weed control at 250 g/ha: 70
